These data points were gathered from patent US12552825B2.

system: E. coli MP-4; assay: MIC determination by CLSI broth dilution, E. coli MP-4; format: cell-based; conditions: Escherichia coli, MP4, CLSI broth dilution; strain MP-4
# Lookup of reported MIC keyed by entry

molecule | MIC
CCCN1CCC(C[C@H]2N(C)C[C@H](C)C[C@@](C)(OC)[C@H](O[C@@H]3O[C@H](C)C[C@H](N(C)C)[C@H]3O)[C@@H](C)C(=O)C(C)(C)C(=O)OC2(C)C)CC1 | < 4 µg/mL
CCCN1CCC(C[C@@H]2COC(=O)C(C)(C)C(=O)[C@H](C)[C@@H](O[C@@H]3O[C@H](C)C[C@H](N(C)C)[C@H]3O)[C@](C)(OC)C[C@@H](C)CN2C)CC1 | < 4 µg/mL
CCN1CCC(C[C@@H]2COC(=O)C(C)(C)C(=O)[C@H](C)[C@@H](O[C@@H]3O[C@H](C)C[C@H](N(C)C)[C@H]3O)[C@](C)(OC)C[C@@H](C)CN2CC)CC1 | < 4 µg/mL
CCCN1CC(C[C@H]2COC(=O)C(C)(C)C(=O)[C@H](C)[C@@H](O[C@@H]3O[C@H](C)C[C@H](N(C)C)[C@H]3O)[C@](C)(OC)C[C@@H](C)CN2C)C1 | 4 to 32 µg/mL
CO[C@]1(C)C[C@@H](C)CN(C)[C@@H](C(=O)N2CCN(C)CC2)[C@H](C)OC(=O)C(C)(C)C(=O)[C@H](C)[C@H]1O[C@@H]1O[C@H](C)C[C@H](N(C)C)[C@H]1O | > 32 µg/mL
CCCN1CCC(C[C@@H]2COC(=O)C(C)(C)C(=O)[C@H](C)[C@@H](O[C@@H]3O[C@H](C)C[C@H](N(C)C)[C@H]3O)[C@](C)(OC)C[C@@H](C)CN2CC)CC1 | < 4 µg/mL
CO[C@]1(C)C[C@@H](C)CN(C)[C@@H](CCCN(C)C2CC2)COC(=O)C(C)(C)C(=O)[C@H](C)[C@H]1O[C@@H]1O[C@H](C)C[C@H](N(C)C)[C@H]1O | < 4 µg/mL
CO[C@]1(C)C[C@@H](C)CN(C)[C@H](/C=C/CN(C)Cc2ccc(F)cc2)COC(=O)C(C)(C)C(=O)[C@H](C)[C@H]1O[C@@H]1O[C@H](C)C[C@H](N(C)C)[C@H]1O | < 4 µg/mL
CCC(CCNCC(C)C)C[C@@H]1COC(=O)C(C)(C)C(=O)[C@H](C)[C@@H](O[C@@H]2O[C@H](C)C[C@H](N(C)C)[C@H]2O)[C@](C)(OC)C[C@@H](C)CN1C (stereo partly shown) | < 4 µg/mL
CO[C@H](CCN1CCCC1)[C@@H]1COC(=O)C(C)(C)C(=O)[C@H](C)[C@@H](O[C@@H]2O[C@H](C)C[C@H](N(C)C)[C@H]2O)[C@](C)(OC)C[C@@H](C)CN1C | < 4 µg/mL
